pIC50: −log10 of the molar value.
Hi! I'm sharing some pIC50 results obtained with UniProt:P00746.
Sequence (P00746 26-253): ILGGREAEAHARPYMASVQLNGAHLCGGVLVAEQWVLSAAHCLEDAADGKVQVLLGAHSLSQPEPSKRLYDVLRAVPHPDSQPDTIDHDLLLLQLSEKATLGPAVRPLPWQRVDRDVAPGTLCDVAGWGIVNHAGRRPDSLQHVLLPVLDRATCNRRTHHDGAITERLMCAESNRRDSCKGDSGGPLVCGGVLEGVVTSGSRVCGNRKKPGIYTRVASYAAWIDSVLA

# example entries with known answers
Cc1cc2c(cc1F)c1c(N)ncnc1n2CC(=O)N1[C@H](C(=O)Nc2cccc(Br)n2)C[C@@]2(C)C[C@@H]12 [Compound 382a]    > 7.00
Cc1nc(C(F)(F)F)cc2c3c(N)ncnc3n(CC(=O)N3[C@H](C(=O)Nc4cccc(Cl)n4)C[C@@]4(C)C[C@@H]34)c12 [Compound 351a]    > 7.00
Nc1ncnc2c1ncn2CC(=O)N1[C@@H]2C[C@@H]2C[C@H]1C(=O)NCCOC(F)(F)F [Compound 99b]    < 6.00

Now consider the entry below.
Which pIC50 value belongs to Cc1cc(C(F)(F)F)cc2c3c(N)ncnc3n(CC(=O)N3CCS[C@H]3C(=O)Nc3cccc(Br)n3)c12 [Compound 324a] ?
> 7.00
